Reference for the values: ChEMBL document CHEMBL5104129

system-under-test: 11-beta-hydroxysteroid dehydrogenase 1 (Homo sapiens, UniProt P28845)
Sequence (P28845 whole entry): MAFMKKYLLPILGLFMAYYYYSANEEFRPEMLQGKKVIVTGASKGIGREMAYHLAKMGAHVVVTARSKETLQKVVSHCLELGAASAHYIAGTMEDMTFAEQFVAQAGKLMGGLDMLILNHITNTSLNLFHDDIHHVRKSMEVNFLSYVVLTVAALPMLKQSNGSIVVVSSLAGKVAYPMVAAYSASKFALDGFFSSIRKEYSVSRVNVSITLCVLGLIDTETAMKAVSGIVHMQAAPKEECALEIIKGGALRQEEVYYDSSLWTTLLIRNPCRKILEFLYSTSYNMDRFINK
assay-text: Inhibition of 11beta-HSD1 in human PBMC cells using 3H-cortisone as substrate assessed as conversion of cortisone to cortisol by ELISA
Assay type: cell-based
pIC50: −log10 of the molar value.
readout: pIC50

CCN1C[C@@H](O)C[C@]12CCN(C1CCCCC1)C2=O :: 7.68

I = CC(C)NC(=O)c1ccc(-c2ccc(CN3C[C@H](O)C[C@]34CCN(C3CCCCC3)C4=O)cc2F)cn1
II = CC(C1CCCCC1)N1C[C@H](O)C[C@]12CCN(C1CCCCC1)C2=O (some centres undefined)
III = N#Cc1ccc(-c2ccc(CN3C[C@H](O)C[C@]34CCN(C3CCCCC3)C4=O)cn2)cc1
IV = CNC(=O)c1ccc(-c2ccc(CN3C[C@H](O)C[C@]34CCN(C3CCCCC3)C4=O)cc2F)cn1
V = CNC(=O)c1ccc(-c2ccc(CN3C[C@H](O)C[C@]34CCN(C3CCCCC3)C4=O)c(F)c2)cn1
# rank_down: sort by pIC50, max first Output the labels ranked as instructed.
II, I, IV, V, III

###

system-under-test: 11-beta-hydroxysteroid dehydrogenase 1 (Homo sapiens)
assay-text: Inhibition of 11beta-HSD1 in human PBMC cells using 3H-cortisone as substrate assessed as conversion of cortisone to cortisol by ELISA
Assay type: cell-based
pIC50: −log10 of the molar value.
readout: pIC50

CNC(=O)c1ccc(-c2ccc(CN3C[C@H](O)C[C@]34CCN(C3CCCCC3)C4=O)cc2)cn1 :: 8.14

1 = CC(C1CCC1)N1C[C@H](O)C[C@]12CCN(C1CCCCC1)C2=O (some centres not stated)
2 = O=C1N(C2CCCCC2)CC[C@]12C[C@@H](O)CN2CC1CCCCC1
Smaller pIC50 value, 1 vs 2 ? Record your answer as the label of the chosen record.
2

###

system-under-test: 11-beta-hydroxysteroid dehydrogenase 1 (Homo sapiens, UniProt P28845)
assay-text: Inhibition of 11beta-HSD1 (unknown origin) using 3H-cortisone as substrate by scintillation proximity assay
readout: IC50 (nM)

Below are worked cases with known answers.
O=C1N(C23CC4CC(CC(C4)C2)C3)CCC12CCCN2CC1CCCC1 (stereo not given) :: 51
CN(C)C(=O)c1ccc(-c2ccc(CN3C[C@H](O)C[C@]34CCN(C3CCCCC3)C4=O)cc2)cn1 :: 35
O=C1N(C23CC4CC(CC(C4)C2)C3)CCC12CCCN2Cc1ccccn1 (stereo not given) :: 134
O=C1N(C2CCCCC2)CCC12CCCN2Cc1ccccc1C(F)(F)F (stereo not given) :: 15
O=C1N(c2ccccc2Cl)CCC12CCCN2CC1CC1 (stereo not given) :: 500

P = O=C1N(C2CCOCC2)CCC12CCCN2Cc1ccc(Cl)cc1 (stereo not given)
Q = O=C1N(C2CCCCC2)CCC12CCCN2Cc1ccc(Cl)cc1 (stereo not given)
R = O=C1N(C2CCCCC2)CCC12CCCN2CC1CC1 (stereo not given)
S = O=C1N([C@H]2CC[C@H](O)CC2)CCC12CCCN2Cc1ccc(Cl)cc1 (stereo not given in full)
T = N#Cc1ccc(-c2ccc(CN3C[C@H](O)C[C@]34CCN(C3CCCCC3)C4=O)nc2)cc1
Put the items in order so that reported IC50 rises from first to last. Output the labels ranked as instructed.
Q, S, P, R, T
(Q: 8 nM, S: 30 nM, P: 45 nM, R: 134 nM, T: 230 nM)

a = O=C1N(C2CCCCC2)CCC12CCCN2Cc1cccc(C(F)(F)F)c1 (stereo not given)
b = O=C1N(C2CCCCC2)CC[C@]12C[C@@H](O)CN2Cc1ccc(-c2ccncc2)cc1
Smaller IC50 value, a vs b ? Record your answer as the label of the chosen record.
b
